Exercise: state measured IC50 for each of the compounds provided.
# Tested on: Endogenous Huntingtin Protein
# PROTOCOL TEXT: Endogenous Huntingtin Protein Assay (Meso Scale Discovery ELISA-based electrochemiluminescence)
# Assay type: cell-based
# RECORDED CONDITIONS: MSD plates coated with MW1 (expanded polyglutamine) or MAB2166 capture antibody; lysates

Illustrative cases are given below, each with its answer.
{"columns": ["COMPOUND", "TGT", "IC50"],
 "data": [
  ["CC(C)(C)NC1CCC(n2nnc3cc(-c4ccc(-c5cn[nH]c5)cc4O)nnc32)C1 (centres unmarked) [Cpd 175]", "Endogenous Huntingtin Protein", "500 to 1000 nM"],
  ["CC1(C)CC(n2nnc3cc(-c4cc5cccnc5cc4O)nnc32)CC(C)(C)N1 [Cpd 81]", "Endogenous Huntingtin Protein", "1000 to 3000 nM"],
  ["Cn1ccc(-c2ccc(-c3cc4cnn(C5CC(C)(C)NC(C)(C)C5)c4nn3)c(O)c2)n1 [Cpd 169]", "Endogenous Huntingtin Protein", "≤ 100 nM"]
]}

Okay, here is my list. What is IC50 for each of these?
1. CC1(C)CC(n2nnc3cc(-c4ccc(-c5ccccn5)cc4O)nnc32)CC(C)(C)N1 [Cpd 61]
2. CC1(C)CC(n2nnc3cc(-c4ccc(-c5c[nH]nc5C#N)cc4O)nnc32)CC(C)(C)N1 [Cpd 109]

1. 1000 to 3000 nM
2. ≤ 100 nM
